Test system: human breast tumor cell strain MCF7-Her2 with stable-transfected Her2
EXPERIMENTAL_PROTOCOL: Cytotoxicity assay (growth inhibition, CellTiter-Glo) on MCF7-Her2
TEST_PARAMETERS: read-out: Cytotoxicity assay IC50 MCF-Her2; MCF7-Her2 cells, 120 hours, CellTiter-Glo
MEASURED_ENDPOINT: pIC50
Units for pIC50: none; it is -log10 of a concentration expressed in mol/L.

Examples with answers:
MOLECULE	STUDY_SYSTEM	MEASURED_NUMBER
COc1cc2cc(c1Cl)N(C)C(=O)C[C@H](OC(=O)[C@H](C)OCCCSC1CC(=O)N(C[C@H]3CC[C@H](C(=O)ON4C(=O)CCC4=O)CC3)C1=O)[C@]1(C)O[C@H]1[C@H](C)C1C[C@@](O)(NC(=O)O1)[C@H](OC)/C=C/C=C(\C)C2 (stereo partly shown) [CE-035]	human breast tumor cell strain MCF7-Her2 with stable-transfected Her2	7.82
COc1cc2cc(c1Cl)N(C)C(=O)C[C@H](OC(=O)[C@H](C)OCCCSC1CC(=O)N(C[C@H]3CC[C@H](C(=O)ON4C(=O)CCC4=O)CC3)C1=O)[C@]1(C)O[C@H]1[C@H](C)C1C[C@@](O)(NC(=O)O1)[C@H](OC)/C=C/C=C(\C)C2 (stereo partly shown) [CE-051]	human breast tumor cell strain MCF7-Her2 with stable-transfected Her2	7.29
COc1cc2cc(c1Cl)N(C)C(=O)C[C@H](OC(=O)C(COCCCSSC)OC)[C@]1(C)O[C@H]1[C@H](C)C1C[C@@](O)(NC(=O)O1)[C@H](OC)/C=C/C=C(\C)C2 (single isomer, unassigned) [CE-055-1]	human breast tumor cell strain MCF7-Her2 with stable-transfected Her2	8.52

Proceed to the following item.
q: Sample COCC(C)(CCC(=O)N(C)[C@@H](C)C(=O)O[C@H]1CC(=O)N(C)c2cc(cc(OC)c2Cl)C/C(C)=C/C=C/[C@@H](OC)[C@@]2(O)C[C@H](OC(=O)N2)[C@@H](C)[C@@H]2O[C@@]12C)SSC (stereo partly shown) [CE-015] — what was its pIC50?
a: 8.15

###

Tested on: Her2-positive human BT474 breast tumor cells
EXPERIMENTAL_PROTOCOL: Cytotoxicity assay (growth inhibition, CellTiter-Glo) on BT474
TEST_PARAMETERS: Homo sapiens, BT-474, 120 h, read-out: Cytotoxicity assay IC50 BT474, BT474 cells, 120 hours, CellTiter-Glo
Threshold 20 nM. IC50 below it: rule met. IC50 at it or above: rule not met.

Known results for molecules:
MOLECULE	LABEL_VALUE
COc1cc2cc(c1Cl)N(C)C(=O)CC(OC(=O)[C@H](C)N(C)C(=O)CCC(SSC)C(C)C)[C@]1(C)O[C@H]1[C@H](C)[C@@H]1C[C@@](O)(NC(=O)O1)[C@H](OC)/C=C/C=C(\C)C2 (stereo partly shown)	rule met
COc1cc2cc(c1Cl)N(C)C(=O)C[C@H](OC(=O)[C@H](C)N(C)[C@H](CCSSC)C(F)(F)F)[C@]1(C)O[C@H]1[C@H](C)[C@@H]1C[C@@](O)(NC(=O)O1)[C@H](OC)/C=C/C=C(\C)C2 (single isomer, unassigned)	rule met
COCC(CCC(=O)N(C)[C@H](C)C(=O)OC1CC(=O)N(C)c2cc(cc(OC)c2Cl)C/C(C)=C/C=C/[C@@H](OC)[C@@]2(O)C[C@H](OC(=O)N2)[C@@H](C)[C@@H]2O[C@@]12C)(COC)SSC (stereo partly shown)	rule not met
COc1cc2cc(c1Cl)N(C)C(=O)C[C@H](OC(=O)[C@H](C)OCCOCCOCCOCCOCCOCCN1C(=O)C=CC1=O)[C@]1(C)O[C@H]1[C@H](C)C1C[C@@](O)(NC(=O)O1)[C@H](OC)/C=C/C=C(\C)C2	rule not met
COc1cc2cc(c1Cl)N(C)C(=O)C[C@H](OC(=O)[C@H](C)OCCOCCSC1CC(=O)N(CCC(=O)NCCOCCOCCOCCC(=O)ON3C(=O)CCC3=O)C1=O)[C@]1(C)O[C@H]1[C@H](C)C1C[C@@](O)(NC(=O)O1)[C@H](OC)/C=C/C=C(\C)C2 (stereo partly shown)	rule not met

q: Lab note: confirm whether the reported IC50 for this molecule is below 20 nM, equality not counting. molecule: COc1cc2cc(c1Cl)N(C)C(=O)C[C@H](OC(=O)[C@H](C)OCCOCCSC1CC(=O)N(CCC(=O)NCCOCCOCCC(=O)ON3C(=O)CCC3=O)C1=O)[C@]1(C)O[C@H]1[C@H](C)C1C[C@@](O)(NC(=O)O1)[C@H](OC)/C=C/C=C(\C)C2 (stereo partly shown)
a: rule not met

q: And COc1cc2cc(c1Cl)N(C)C(=O)C[C@H](OC(=O)C(COCCSSC)OC)[C@]1(C)O[C@H]1[C@H](C)C1C[C@@](O)(NC(=O)O1)[C@H](OC)/C=C/C=C(\C)C2 (stereo partly shown) ?
a: rule not met

q: Another molecule: COCC(CCC(=O)N(C)[C@@H](C)C(=O)OC1CC(=O)N(C)c2cc(cc(OC)c2Cl)C/C(C)=C/C=C/[C@@H](OC)[C@@]2(O)C[C@H](OC(=O)N2)[C@@H](C)[C@@H]2O[C@@]12C)(COC)SSC (stereo partly shown)
a: rule met

q: What do we get for COc1cc2cc(c1Cl)N(C)C(=O)C[C@H](OC(=O)COCCCSC1CC(=O)N(C[C@H]3CC[C@H](C(=O)ON4C(=O)CCC4=O)CC3)C1=O)[C@]1(C)O[C@H]1[C@H](C)C1C[C@@](O)(NC(=O)O1)[C@H](OC)/C=C/C=C(\C)C2 (stereo partly shown) ?
a: rule not met

q: // same read-out, input: COc1cc2cc(c1Cl)N(C)C(=O)C[C@H](OC(=O)[C@H](C)OCCOCCOCCN1C(=O)C=CC1=O)[C@]1(C)O[C@H]1[C@H](C)C1C[C@@](O)(NC(=O)O1)[C@H](OC)/C=C/C=C(\C)C2
a: rule not met

q: Do the same for COCC(S)(CCC(=O)N(C)[C@H](C)C(=O)OC1CC(=O)N(C)c2cc(cc(OC)c2Cl)C/C(C)=C/C=C/[C@@H](OC)[C@@]2(O)C[C@H](OC(=O)N2)[C@@H](C)[C@@H]2O[C@@]12C)COC (stereo partly shown) please
a: rule not met

###

Examples of compounds with documented IC50 follow.
System: Her2 low expression human MCF-7 breast tumor cells
EXPERIMENTAL_PROTOCOL: Cytotoxicity assay (growth inhibition, CellTiter-Glo) on MCF-7
TEST_PARAMETERS: Homo sapiens, MCF7, 120 h, read-out: Cytotoxicity assay IC50 MCF7, MCF-7 cells, 120 hours, CellTiter-Glo
Provide the reading as a plain figure in nM.

q: Form field: IC50 recorded for COCC(C)(CCC(=O)N(C)[C@H](C)C(=O)OC1CC(=O)N(C)c2cc(cc(OC)c2Cl)C/C(C)=C/C=C/[C@@H](OC)[C@@]2(O)C[C@H](OC(=O)N2)[C@@H](C)[C@@H]2O[C@@]12C)SSC (stereo partly drawn) with Her2 low expression human MCF-7 breast tumor cells (enter value)
a: 127

q: Note, next up: COc1cc2cc(c1Cl)N(C)C(=O)C[C@H](OC(=O)[C@H](C)N(C)C(CCSC1CC(=O)N(C[C@H]3CC[C@H](C(=O)ON4C(=O)CCC4=O)CC3)C1=O)C(F)(F)F)[C@]1(C)O[C@H]1[C@H](C)C1C[C@@](O)(NC(=O)O1)[C@H](OC)/C=C/C=C(\C)C2 (stereo partly drawn)
a: 873

q: What do you have for COCC(CCC(=O)N(C)[C@@H](C)C(=O)OC1CC(=O)N(C)c2cc(cc(OC)c2Cl)C/C(C)=C/C=C/[C@@H](OC)[C@@]2(O)C[C@H](OC(=O)N2)[C@@H](C)[C@@H]2O[C@@]12C)(COC)SSC (stereo partly drawn) ?
a: 8.9

q: Try this compound next: COc1cc2cc(c1Cl)N(C)C(=O)C[C@H](OC(=O)[C@H](C)OCCOCCOCCN1C(=O)C=CC1=O)[C@]1(C)O[C@H]1[C@H](C)C1C[C@@](O)(NC(=O)O1)[C@H](OC)/C=C/C=C(\C)C2
a: 327

q: Similarly, COc1cc2cc(c1Cl)N(C)C(=O)CC(OC(=O)[C@H](C)N(C)C(CCSSCCCC(=O)ON1C(=O)CCC1=O)C(F)(F)F)[C@]1(C)O[C@H]1[C@H](C)[C@@H]1C[C@@](O)(NC(=O)O1)[C@H](OC)/C=C/C=C(\C)C2 (stereo partly drawn) ?
a: 185

q: Moving on to COCC(CCC(=O)N(C)[C@H](C)C(=O)OC1CC(=O)N(C)c2cc(cc(OC)c2Cl)C/C(C)=C/C=C/[C@@H](OC)[C@@]2(O)C[C@H](OC(=O)N2)[C@@H](C)[C@@H]2O[C@@]12C)(COC)SSC (stereo partly drawn)
a: 67.7

q: Also check COc1cc2cc(c1Cl)N(C)C(=O)CC(OC(=O)[C@H](C)N(C)C(=O)CCC(SSC)C(C)C)[C@]1(C)O[C@H]1[C@H](C)[C@@H]1C[C@@](O)(NC(=O)O1)[C@H](OC)/C=C/C=C(\C)C2 (stereo partly drawn)
a: 10

q: Request: COc1cc2cc(c1Cl)N(C)C(=O)CC(OC(=O)[C@@H](C)N(C)C(=O)CCC(C)(C#N)SSC)[C@]1(C)O[C@H]1[C@H](C)[C@@H]1C[C@@](O)(NC(=O)O1)[C@H](OC)/C=C/C=C(\C)C2 (stereo partly drawn)
a: 1570

q: Next record, please: COCC(S)(CCC(=O)N(C)[C@@H](C)C(=O)OC1CC(=O)N(C)c2cc(cc(OC)c2Cl)C/C(C)=C/C=C/[C@@H](OC)[C@@]2(O)C[C@H](OC(=O)N2)[C@@H](C)[C@@H]2O[C@@]12C)COC (stereo partly drawn)
a: 23.1
